As shown below, each of these sequences has a reported furin cleavage Z-score value.
TARGET_OF_ASSAY: furin, P09958;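 further: purified furin at 1:10 enzyme:substrate in 50 mM HEPES pH 7.5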
Sequence (P09958 whole entry): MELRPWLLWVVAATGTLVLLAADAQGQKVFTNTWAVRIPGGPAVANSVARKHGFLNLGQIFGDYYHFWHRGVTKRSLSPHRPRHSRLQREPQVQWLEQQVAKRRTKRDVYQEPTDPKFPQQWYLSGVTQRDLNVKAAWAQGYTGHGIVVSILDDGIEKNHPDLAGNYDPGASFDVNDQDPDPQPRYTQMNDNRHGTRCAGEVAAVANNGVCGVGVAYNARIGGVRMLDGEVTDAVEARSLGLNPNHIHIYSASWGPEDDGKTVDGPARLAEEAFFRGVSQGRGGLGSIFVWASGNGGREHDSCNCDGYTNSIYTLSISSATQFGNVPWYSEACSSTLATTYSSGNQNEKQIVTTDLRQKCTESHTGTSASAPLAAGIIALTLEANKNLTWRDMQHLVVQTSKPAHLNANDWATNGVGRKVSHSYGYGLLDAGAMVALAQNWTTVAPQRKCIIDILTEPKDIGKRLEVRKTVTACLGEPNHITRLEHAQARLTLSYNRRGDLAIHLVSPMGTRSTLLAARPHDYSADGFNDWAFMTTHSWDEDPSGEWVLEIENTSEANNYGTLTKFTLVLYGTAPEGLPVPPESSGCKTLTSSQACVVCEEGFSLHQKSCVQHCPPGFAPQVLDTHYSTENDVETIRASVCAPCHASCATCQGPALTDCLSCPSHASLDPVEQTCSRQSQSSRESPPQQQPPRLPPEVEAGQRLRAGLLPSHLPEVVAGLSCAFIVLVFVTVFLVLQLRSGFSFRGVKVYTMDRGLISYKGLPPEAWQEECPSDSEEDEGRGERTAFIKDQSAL
METHOD_SUMMARY: furin cleavage Z-score vs untreated control; higher = more cleavage, active = 3.5 or more, inactive = 1 or less, 8 variable residues between constant flanks
MEASUREMENT_SETUP: 30 min
The list shows a part of the results. The hit rate among all sequences tested is not known here.

{"columns": ["POLYMER_SEQUENCE", "furin cleavage Z-score"],
 "data": [
  ["CARQKKGVVPAGNASASA [FS-2749]", "-1.72 (inactive)"],
  ["CARVVLSGKPAGNASASA [HC1003]", "-0.908 (inactive)"],
  ["CAIICDECHSAGNASASA [HC817]", "-0.782 (inactive)"],
  ["CARRKRDWVIAGNASASA [FS-2778]", "8.57 (active)"],
  ["CARQKRDPAFAGNASASA [FS-2289]", "5.36 (active)"],
  ["CARSKRRWVIAGNASASA [FS-2812]", "0.146 (inactive)"]
]}

Inquiry: State the recorded furin cleavage Z-score for this entry: CADFDSVIDCAGNASASA [HC884]
Reply text: -0.179 (inactive)
